System: Respiratory syncytial virus recombinant with luciferase (RSV-Luc5) in HEp-2 cells
Assay: microbe, parasite or virus in culture
Assay type: cell-based
Conditions: human respiratory syncytial virus, HEp-2, 72 h, read-out: RSV Hep2 EC50

Molecule | EC50, nM
CC1(C)C2CCC1(C)C(OC(=O)OC[C@H]1O[C@@](C#N)(c3ccc4c(N)ncnn34)[C@H](O)[C@@H]1O)C2 (stereo partly shown) [Compound 71] | 3010
C[C@H](OC(=O)OC[C@H]1O[C@@](C#N)(c2ccc3c(N)ncnn23)[C@H](O)[C@@H]1O)c1ccccc1 [Compound 88] | 382
CCCC(=O)Nc1ncnn2c([C@]3(C#N)O[C@H](COC(=O)OCC(C)C)[C@@H](O)[C@H]3O)ccc12 [Compound 21] | 2380
N#C[C@@]1(c2ccc3c(N)ncnn23)O[C@H](COC(=O)OC2CC2)[C@@H](O)[C@H]1O [Compound 9] | 784
N#C[C@@]1(c2ccc3c(N)ncnn23)O[C@H](COC(=O)OC2CCCCCCC2)[C@@H](O)[C@H]1O [Compound 14] | 350
N#C[C@@]1(c2ccc3c(N)ncnn23)O[C@H](COC(=O)OCC23CC(C2)C3)[C@@H](O)[C@H]1O [Compound 72] | 779
N#C[C@@]1(c2ccc3c(N)ncnn23)O[C@H](COC(=O)OCc2ccccc2)[C@@H](O)[C@H]1O [Compound 13] | 444

----------
System: Caco-2 cells (clone C2BBe1)
Experiment: CACO-2 permeability
Type: in vitro ADME
Parameters: unit not given here
Conditions: apical to basolateral; donor pH 6.5, receiver pH 7.4
Class membership depends on DM Caco2 A to B alone; the intervals are bucket A = under 1, bucket B = from 1 up to 4, bucket C = 4 and over

Compound | Assigned class
CCC(C)(C)OC(=O)OC[C@H]1O[C@@](C#N)(c2ccc3c(N)ncnn23)[C@H](O)[C@@H]1O | bucket A
CC1(C)[C@@H]2CC[C@@]1(C)[C@@H](OC(=O)OC[C@H]1O[C@@](C#N)(c3ccc4c(N)ncnn34)[C@H](O)[C@@H]1O)C2 | bucket C
CC(C)[C@@H]1CC[C@@H](C)C[C@H]1OC(=O)OC[C@H]1O[C@@](C#N)(c2ccc3c(N)ncnn23)[C@H](O)[C@@H]1O | bucket C
Cc1oc(=O)oc1COC(=O)OC[C@H]1O[C@@](C#N)(c2ccc3c(N)ncnn23)[C@H](O)[C@@H]1O | bucket A
CCOC(=O)OC[C@H]1O[C@@](C#N)(c2ccc3c(NC(=O)OCc4ccccc4)ncnn23)[C@H](O)[C@@H]1O | bucket B
N#C[C@@]1(c2ccc3c(N)ncnn23)O[C@H](COC(=O)OCC2(c3ccccc3)CC2)[C@@H](O)[C@H]1O | bucket C
CC(C)C(=O)O[C@H]1[C@@H](OC(=O)C(C)C)[C@](C#N)(c2ccc3c(N)ncnn23)O[C@@H]1COC(=O)OC(C)(C)C | bucket C
N#C[C@@]1(c2ccc3c(N)ncnn23)O[C@H](COC(=O)OC23CC4CC(CC(C4)C2)C3)[C@@H](O)[C@H]1O | bucket B
CCC1O[C@H]2[C@@H](O1)[C@](C#N)(c1ccc3c(N)ncnn13)O[C@@H]2COC(=O)OC(C)C (stereo partly shown) | bucket C
COC(=O)OC[C@H]1O[C@@](C#N)(c2ccc3c(N)ncnn23)[C@H](OC(=O)OC)[C@@H]1OC(=O)OC | bucket B
N#C[C@@]1(c2ccc3c(N)ncnn23)O[C@H](COC(=O)OCC23CC(C2)C3)[C@@H](O)[C@H]1O | bucket B
